# condition description: in n-propanol, 298.15 K
property label: solubility (mole fraction)
// response body must contain only the number

# input If you can, please state the reported solubility (mole fraction) value of FC(F)(F)c1cccnc1Cl .
# output 0.355

====

# condition description: in toluene, 303.15 K
property label: solubility (mole fraction)

# input If you can, please state the reported solubility (mole fraction) value of FC(F)(F)c1cccnc1Cl .
# output 0.862

====

# condition description: in n-hexane, 303.15 K
property label: solubility (mole fraction)

# input If you can, please state the reported solubility (mole fraction) value of FC(F)(F)c1cccnc1Cl .
# output 0.762

====

# condition description: in ethanol, 288.15 K
property label: solubility (mole fraction)
// response body must contain only the number

# input If you can, please state the reported solubility (mole fraction) value of FC(F)(F)c1cccnc1Cl .
# output 0.355

====

# condition description: in n-propanol, 273.15 K
property label: solubility (mole fraction)
// response body must contain only the number

# input If you can, please state the reported solubility (mole fraction) value of FC(F)(F)c1cccnc1Cl .
# output 0.0727

====

# condition description: in toluene, 278.15 K
property label: solubility (mole fraction)
// response body must contain only the number

# input If you can, please state the reported solubility (mole fraction) value of FC(F)(F)c1cccnc1Cl .
# output 0.413

====

# condition description: in n-propanol, 303.15 K
property label: solubility (mole fraction)
// response body must contain only the number

# input If you can, please state the reported solubility (mole fraction) value of FC(F)(F)c1cccnc1Cl .
# output 0.492

====

# condition description: in dichloromethane, 303.15 K
property label: solubility (mole fraction)
// response body must contain only the number

# input If you can, please state the reported solubility (mole fraction) value of FC(F)(F)c1cccnc1Cl .
# output 0.741
